This collection of values is drawn from patent US7973078B2.

# system under test: rat EP1 receptor (Rattus norvegicus)
# Sequence (P70597 1-405): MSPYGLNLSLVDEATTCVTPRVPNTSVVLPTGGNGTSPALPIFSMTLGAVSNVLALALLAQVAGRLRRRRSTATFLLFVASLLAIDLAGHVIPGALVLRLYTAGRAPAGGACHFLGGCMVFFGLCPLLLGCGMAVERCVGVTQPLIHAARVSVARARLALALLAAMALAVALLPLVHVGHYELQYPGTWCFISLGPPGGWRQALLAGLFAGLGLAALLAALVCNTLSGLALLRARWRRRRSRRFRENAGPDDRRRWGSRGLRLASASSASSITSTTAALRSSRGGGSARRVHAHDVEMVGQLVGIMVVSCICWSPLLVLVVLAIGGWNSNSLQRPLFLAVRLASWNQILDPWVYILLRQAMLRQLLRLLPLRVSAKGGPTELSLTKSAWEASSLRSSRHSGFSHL
# procedure details: Receptor antagonistic activity using cells expressing an EP1 receptor (PGE2-induced intracellular Ca change, FLIPR)
# test context: HEK293 cells stably expressing rat EP1 receptors; 100 nM PGE2; Ca concentration in cells
readout label: pIC50
In simple prose, pIC50 is minus the logarithm base ten of a concentration in moles per litre.

Solved cases (5 shown):
1. Cc1ccc(S(=O)(=O)N(CC(=O)NCc2ccncn2)c2cccc(Cl)c2C)cc1: 7.92
2. Cc1ccc(S(=O)(=O)N(CC(=O)NCc2cccc(OCC(=O)O)c2)c2cccc(Cl)c2C)cc1: 8.62
3. CCc1c(Cl)cccc1N(CC(=O)NCc1cccc(C(=O)O)c1)S(=O)(=O)c1ccc(C)cc1: 9.14
4. Cc1ccc(S(=O)(=O)N(CC(=O)NCc2cccc(C(=O)O)c2)c2cccc(Cl)c2C)cc1: 8.80
5. Cc1ccc(S(=O)(=O)N(CC(=O)NCc2ccc(C(=O)NS(C)(=O)=O)cc2)c2cccc(Cl)c2C)cc1: 8.85

Field: next molecule
Query: Entry `COc1c(Cl)cccc1N(CC(=O)NCc1cccc(C(=O)O)c1)S(=O)(=O)c1ccc(C)cc1` has what pIC50?
Reply: 8.82

###

# system under test: UniProt:P70597
# Sequence (P70597 1-405): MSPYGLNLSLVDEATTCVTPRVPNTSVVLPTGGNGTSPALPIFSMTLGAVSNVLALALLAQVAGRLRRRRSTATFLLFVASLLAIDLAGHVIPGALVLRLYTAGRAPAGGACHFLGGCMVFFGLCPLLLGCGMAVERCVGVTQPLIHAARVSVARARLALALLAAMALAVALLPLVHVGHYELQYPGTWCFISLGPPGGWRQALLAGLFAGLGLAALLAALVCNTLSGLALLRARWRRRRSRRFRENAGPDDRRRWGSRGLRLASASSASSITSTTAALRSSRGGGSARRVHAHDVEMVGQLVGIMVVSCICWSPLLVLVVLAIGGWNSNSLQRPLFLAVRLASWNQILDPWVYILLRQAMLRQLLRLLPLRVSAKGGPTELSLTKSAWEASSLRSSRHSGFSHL
Under this convention, true denotes Ki strictly below 500 pM and false denotes Ki at or above 500 pM.

1) Cc1ccc(S(=O)(=O)N(CC(=O)NCc2ccc(C(=O)NS(C)(=O)=O)cc2)c2cccc(Cl)c2C)cc1: false
2) CCc1c(Cl)cccc1N(CC(=O)NCc1cccc(/C=C/C(=O)O)c1)S(=O)(=O)c1ccc(C)cc1: true
3) COc1c(Cl)cccc1N(CC(=O)NCc1cccc(C(=O)O)c1)S(=O)(=O)c1ccc(C)cc1: true
4) Cc1ccc(S(=O)(=O)N(CC(=O)NCc2cccc(C(=O)O)c2)c2cccc(Cl)c2C)cc1: false

Query: Criterion: Ki strictly below 500 pM. Is it met by `CCc1c(Cl)cccc1N(CC(=O)NCc1cccc(C(=O)O)c1)S(=O)(=O)c1ccc(C)cc1` ?
Reply: true

Query: Criterion: Ki strictly below 500 pM. Is it met by `Cc1ccc(S(=O)(=O)N(CC(=O)NCc2cccc(OCC(=O)O)c2)c2cccc(Cl)c2C)cc1` ?
Reply: false

Query: Criterion: Ki strictly below 500 pM. Is it met by `COc1ccc(CNC(=O)CN(c2cccc(Cl)c2C)S(=O)(=O)c2ccc(C)cc2)cc1` ?
Reply: false
